Target: T1, ZFP SBS#1342 (synthetic)
T1 chain: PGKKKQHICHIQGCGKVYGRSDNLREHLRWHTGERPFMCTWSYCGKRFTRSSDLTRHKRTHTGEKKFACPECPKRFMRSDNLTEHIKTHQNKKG
Test: EMSA
Conditions: tags: MBP fusion
pKd: −log10 of the molar value.

Binder | pKd
CAGGCGCAG (dsDNA) DNA 1: CAGGCGCAG DNA 2: CTGCGCCTG | 9.17
